meta.source: paper PMC4414711

assay_system: AKR1C3 (Homo sapiens, UniProt P42330)
Sequence (P42330 1-323): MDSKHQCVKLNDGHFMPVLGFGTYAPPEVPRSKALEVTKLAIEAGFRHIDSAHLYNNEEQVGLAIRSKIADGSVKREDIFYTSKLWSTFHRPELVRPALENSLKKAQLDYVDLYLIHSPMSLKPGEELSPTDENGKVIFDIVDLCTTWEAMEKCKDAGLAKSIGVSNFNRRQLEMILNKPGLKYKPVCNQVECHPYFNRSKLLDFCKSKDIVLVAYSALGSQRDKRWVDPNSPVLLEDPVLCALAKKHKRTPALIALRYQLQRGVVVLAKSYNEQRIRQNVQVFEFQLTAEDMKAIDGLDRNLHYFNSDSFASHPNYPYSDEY
measurement_conditions: read-out: 1C3 IC50; recombinant AKR1C3; S-tetralol 165 μM (= Km); NADP+
pIC50: −log10 of the molar value.
attribute_measured: pIC50

Worked set:
[
  {
    "compound": "CC(C)(C)OC(=O)C=Cc1ccc(OC(=O)CCc2ccccc2)cc1 (mixture of isomers) [Compound 13]",
    "pIC50": 3.20
  },
  {
    "compound": "COc1cc(/C=C/C(=O)O)ccc1O [Compound 16, ferulic acid]",
    "pIC50": 4.68
  }
]

A: O=C(O)/C=C/c1cccc(O)c1 [Compound 15, m-coumaric acid]
B: O=C(O)/C=C/c1ccc(OC(=O)CCc2ccccc2)cc1 [Compound 8, (2E)-3-prop-2-enoic acid]
Two entries are listed, A and B . Which one carries the higher pIC50? Please reply using the label of the selected record.
B
(B: 5.33, A: 4.07)

====

pIC50: −log10 of the molar value.
Observed pIC50, system AKR1C3 (Homo sapiens, UniProt P42330).
attribute_measured: pIC50

[
  {
    "compound": "O=C(O)/C=C/c1ccc(O)cc1 [Compound 14, p-coumaric acid]",
    "pIC50": 3.70
  },
  {
    "compound": "CC(C)=CCc1cc(/C=C/C(=O)OC(C)(C)C)ccc1OC(=O)CCc1ccccc1 [Compound 7]",
    "pIC50": 3.22
  }
]

a: O=C(O)/C=C/c1ccc(OC(=O)c2ccncc2)cc1 [Compound 12]
b: O=C(O)/C=C/c1ccc(OC(=O)c2ccccc2)cc1 [Compound 11]
c: O=C(O)/C=C/c1cccc(OC(=O)CCc2ccccc2)c1 [Compound 9]
Ranking field: pIC50; order: falling. API: response body holds the labels in the requested order.
c, b, a

====

Observed IC50, system AKR1C2 (Homo sapiens).
attribute_measured: IC50 (µM)

Worked set:
[
  {
    "molecule": "O=C(O)/C=C/c1ccc(OC(=O)c2ccccc2)cc1 [Compound 11]",
    "IC50, µM": 127
  },
  {
    "molecule": "O=C(O)/C=C/c1ccc(O)cc1 [Compound 14, p-coumaric acid]",
    "IC50, µM": 1300
  }
]

A: O=C(O)/C=C/c1ccc(OC(=O)c2ccncc2)cc1 [Compound 12]
B: CC(C)=CCc1cc(/C=C/C(=O)OC(C)(C)C)ccc1OC(=O)CCc1ccccc1 [Compound 7]
C: O=C(O)/C=C/c1cccc(OC(=O)CCc2ccccc2)c1 [Compound 9]
Ranking field: IC50; order: falling. API: response body holds the labels in the requested order.
B, A, C
